Documented recovery at 4 h, 10 μM across a set of compounds
- test: In vitro equilibrium dialysis (RED) protein binding, rat brain homogenate
- Assay type: in vitro ADME
- run-parameters: male, Sprague-Dawley, rat, pH 7.4
- Protocol: Cilnidipine was tested by PsychoGenics using standard methodology in 96-well RED (Rapid Equilibrium Dialysis) plates from Thermo Fisher Scientific. Male Sprague-Dawley plasma and brain were obtained from BioIVT to provide the required protein matrix. […] Samples were analyzed by UPLC-MS/MS using molecular reaction monitoring (MRM). […] The recovery determination serves as an indicator of reliability of the calculated protein binding value. […]
Reply with the number and its unit after it.

Answered examples (2):
Query block: State the recorded recovery at 4 h, 10 μM for this entry: COCCOC(=O)C1=C(C)NC(C)=C(C(=O)OC/C=C/c2ccccc2)C1c1cccc([N+](=O)[O-])c1 (stereo not drawn)
Result block: 93.7%

Query block: So what does the record say about recovery at 4 h, 10 μM for C=C[C@H]1C[N@@]2CC[C@H]1C[C@@H]2[C@@H](O)c1ccnc2ccc(OC)cc12 ?
Result block: 125%

Continue with the next compound.
Query block: What value of recovery at 4 h, 10 μM has been recorded for this entry: CC(=O)CC(c1ccccc1)c1c(O)c2ccccc2oc1=O (stereo not drawn)
Result block: 132%

----------
# recovery at 4 h, 10 μM values compiled below
- test: In vitro equilibrium dialysis (RED) protein binding, rat plasma
- Type: in vitro ADME
- run-parameters: male, Sprague-Dawley, pH 7.4
Field: numeric (%). Do not append units.

Query block: For the compound shown here, COCCOC(=O)C1=C(C)NC(C)=C(C(=O)OC/C=C/c2ccccc2)C1c1cccc([N+](=O)[O-])c1 (stereo not drawn) , give the reported recovery at 4 h, 10 μM.
Result block: 92.9

Query block: Name the recorded recovery at 4 h, 10 μM for C=C[C@H]1C[N@@]2CC[C@H]1C[C@@H]2[C@@H](O)c1ccnc2ccc(OC)cc12 .
Result block: 93.7

Query block: // lookup recovery at 4 h, 10 μM for CC(=O)CC(c1ccccc1)c1c(O)c2ccccc2oc1=O (stereo not drawn)
Result block: 113

----------
- test: In vitro equilibrium dialysis (RED) protein binding, rat plasma
- Type: in vitro ADME
- run-parameters: male, Sprague-Dawley, plasma, pH 7.4
quantity-name: fraction unbound at 4 h, 10 μM
I only need the number, thanks.

Query block: Entry under review: CC(=O)CC(c1ccccc1)c1c(O)c2ccccc2oc1=O (stereo not shown) . Reported fraction unbound at 4 h, 10 μM?
Result block: 0.008
